Tested on: HepG2
Assay Details: Antitumor activity against human HepG2 cells assessed as reduction in cell viability incubated for 72 hrs by MTT assay
Format: functional, cell-based
Measurement Setup: HepG2, 72 h
Give pIC50 for every item shown.
Give bare numbers, as −log10 of the molar value.

# Smiles Input, System, pIC50
measured = [
    ("CCCn1c(-c2cccc(OC)c2)nc2cc3nc(-c4cccc(OC)c4)n(CCC)c3cc21", "HepG2", 5.37),
]

Give pIC50 for each listed item.
1. CCCn1c(-c2cccc(C)c2)nc2cc3nc(-c4cccc(C)c4)n(CCC)c3cc21
2. CCCn1c(-c2ccccc2)nc2cc3nc(-c4ccccc4)n(CCC)c3cc21
3. CCCn1c(-c2cccc(Cl)c2)nc2cc3nc(-c4cccc(Cl)c4)n(CCC)c3cc21
4. C[C@H]1COC2=C1C(=O)C(=O)c1c2ccc2c1CCCC2(C)C

output:
5.21
4.88
4.75
4.53
